# assayName: qHTS for differential inhibitors of proliferation of Plasmodium falciparum line D10 (AID 1877);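 also: parasites grown with compound for 72 h before DNA staining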
# conditionContext: series mostly up to 28.7 µM
Results filed as inconclusive are left out. The source made the active and inactive calls. Calls follow the shape of the dose curve; as a rule, active = well fitted curve in the direction sought with a large enough effect; inconclusive = small, poorly fitted or top-dose-only effect, or another doubt; inactive = no such curve, though single readings can be large or run the other way.
Give your call using only these classes: active, inactive

Problem: Which result was noted for this compound in the test: O=C(O)c1nn(Cc2ccc(Cl)cc2Cl)c2ccccc12
Result: inactive

Problem: How about CCCCCCCCC(=O)NCc1ccc(O)c(OC)c1 ?
Result: inactive

Problem: How about CC[C@H]1CN2CCc3cc(OC)c(OC)cc3[C@@H]2C[C@@H]1C[C@H]1NCCc2cc(OC)c(OC)cc21 ?
Result: active

Problem: How about COC(=O)C1=CCCN(C)C1 ?
Result: inactive

Problem: How about C[N+](C)(C)CCCCCCCCCC[N+](C)(C)C ?
Result: active

Problem: How about NC(=O)CN1CCCC1=O ?
Result: inactive

Problem: How about CC(N)C(=O)OC(C)(C)Cc1ccc(Cl)cc1 (centres undefined) ?
Result: inactive

Problem: How about CNC(=O)Oc1ccc2c(c1)[C@]1(C)CCN(C)[C@@H]1N2C ?
Result: active

Problem: How about NC(N)=NC(=O)c1nc(Cl)c(N)nc1N ?
Result: active

###

# experimentalSystem: Cytochrome P450 2D6 (Homo sapiens) (UniProt P10635)
# Sequence (P10635 whole entry, looked up): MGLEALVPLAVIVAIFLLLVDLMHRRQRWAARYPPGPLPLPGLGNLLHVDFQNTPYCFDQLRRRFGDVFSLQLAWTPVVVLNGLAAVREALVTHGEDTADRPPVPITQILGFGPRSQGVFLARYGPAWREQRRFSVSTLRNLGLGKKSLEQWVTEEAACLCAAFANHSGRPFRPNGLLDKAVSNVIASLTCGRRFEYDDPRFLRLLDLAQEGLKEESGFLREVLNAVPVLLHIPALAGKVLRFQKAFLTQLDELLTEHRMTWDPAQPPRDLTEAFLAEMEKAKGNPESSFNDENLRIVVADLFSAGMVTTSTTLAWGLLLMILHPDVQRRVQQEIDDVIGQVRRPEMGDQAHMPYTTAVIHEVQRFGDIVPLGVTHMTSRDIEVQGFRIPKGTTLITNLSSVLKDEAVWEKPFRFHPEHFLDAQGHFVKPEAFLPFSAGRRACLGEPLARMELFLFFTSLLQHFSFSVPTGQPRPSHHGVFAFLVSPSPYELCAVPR
# assayName: Cytochrome P450 family 2 subfamily D member 6 (CYP2D6) small molecule antagonists: luciferase biochemical (cell-free) qHTS assay (AID 1645840); also: nearly all actives have a fitted effect of over 55% in size
# conditionContext: P450-Glo CYP2D6 enzyme, luciferin luminescence, 1 h; series mostly up to 57.4 µM
Inconclusive results are not listed. Activity calls are given as the source filed them. Calls follow the shape of the dose curve; as a rule, active = well fitted inhibition curve with a large enough effect in the repeat runs; inconclusive = weak or mixed curves; inactive = flat fitted curve, though single readings scatter.
Give your call using only these classes: Yes (active), No (inactive)

Problem: Which result was noted for this compound in the test: CN1C(=O)CN=C(c2ccccc2)c2cc([N+](=O)[O-])ccc21
Result: No

Problem: How about C[N+](C)(C)CCOC(=O)C(O)(c1ccccc1)c1ccccc1 ?
Result: Yes

Problem: How about O=C(O)Cc1ccccc1 ?
Result: Yes

Problem: How about Oc1c(Br)cc(Br)cc1Br ?
Result: No

Problem: How about O=C(N[C@H]1N=C(c2ccccc2F)c2cccc3c2N(CC3)C1=O)c1cc2ccccc2[nH]1 ?
Result: No

Problem: How about O=C(O)c1nn(Cc2ccc(Cl)cc2Cl)c2ccccc12 ?
Result: No

Problem: How about CCOC(=O)NC(O)C(Cl)(Cl)Cl (centres undefined) ?
Result: No

Problem: How about CC(CC(C(N)=O)(c1ccccc1)c1ccccc1)N(C)C (centres undefined) ?
Result: Yes

Problem: How about COCC(=O)N(c1c(C)cccc1C)C(C)C(=O)OC (centres undefined) ?
Result: No

Problem: How about C[C@]12CC[C@H]3[C@@H](CCC4=CC(=O)CC[C@@]43C)[C@@H]1CC[C@@H]2C(=O)O ?
Result: No

Problem: How about CCc1ccc(C2CCNCC2)cc1 ?
Result: Yes

Problem: How about CC1N=C(N)OC1c1ccccc1 (centres undefined) ?
Result: Yes

Problem: How about CCOC(=O)NC(C)(C)Cc1ccc(Cl)cc1 ?
Result: No

Problem: How about CCCC[N+]1(C)[C@@H]2CC(OC(=O)[C@H](CO)c3ccccc3)C[C@H]1[C@@H]1O[C@@H]12 (some centres undefined) ?
Result: Yes

Problem: How about CC1=C2[C@H]3OC(=O)[C@@H](C)[C@@H]3CC[C@@]2(C)C=CC1=O ?
Result: No

Problem: How about C1CN2CCC1CC2 ?
Result: No

Problem: How about CCCCCCCCCCCC[N+](C)(C)CCOc1ccccc1 ?
Result: Yes

Problem: How about C#C[C@]1(O)CC[C@H]2[C@@H]3CCC4=CC(=O)CCC4=C3C=C[C@@]21CC ?
Result: Yes

Problem: How about CCOC(C(=O)OCCN(C)C)(c1ccccc1)c1ccccc1 ?
Result: Yes

Problem: How about CC1COC2(c3ccccc3Cl)c3cc(Cl)ccc3NC(=O)CN12 (centres undefined) ?
Result: Yes

Problem: How about CN(C)CCc1c[nH]c2ccc(O)cc12 ?
Result: Yes

Problem: How about CC(C)(C)OC(=O)c1ncn2c1[C@@H]1CCCN1C(=O)c1c(Br)cccc1-2 ?
Result: No

Problem: How about CCCOC(=O)Cc1ccc(OCC(=O)N(CC)CC)c(OC)c1 ?
Result: No

Problem: How about O=C(N[C@@H]1N=C(c2ccccc2F)c2cccc3c2N(CC3)C1=O)c1cc2ccccc2[nH]1 ?
Result: No
